target.or.test.system: T1, hNgR1-his (human, UniProt Q9BZR6 27-447, limits assumed)
T1 construct: Soluble antigen flowed over antibodies captured on Protein A chips; also called antigen protein (hNgR1-his); the antigen; not shown: histidine tag
T1 sequence (looked up): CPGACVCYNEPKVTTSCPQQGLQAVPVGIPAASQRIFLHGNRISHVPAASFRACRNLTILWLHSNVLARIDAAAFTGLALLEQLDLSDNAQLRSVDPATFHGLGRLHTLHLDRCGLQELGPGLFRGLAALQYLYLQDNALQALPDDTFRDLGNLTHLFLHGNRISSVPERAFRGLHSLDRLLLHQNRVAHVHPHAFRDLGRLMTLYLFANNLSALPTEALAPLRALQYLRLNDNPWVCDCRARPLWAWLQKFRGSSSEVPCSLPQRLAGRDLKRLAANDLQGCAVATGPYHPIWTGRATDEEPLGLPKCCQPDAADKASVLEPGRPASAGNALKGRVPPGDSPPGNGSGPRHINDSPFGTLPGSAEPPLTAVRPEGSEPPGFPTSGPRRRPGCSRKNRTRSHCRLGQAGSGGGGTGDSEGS
experimental.details: SPR, Biacore T200; IgG1 captured on Protein A chip, hNgR1-his flowed at different concentrations
reported.metric: Kd (nM)
Numeric answer only, unit nM assumed.

{"binder": "H6HE2L antibody (antibody, human IgG1, kappa, V domains shown, Optimized from CSA108) VH: QMQLVQSGGGLEQPGRSLRLSCVTSGFNFNDYAMHWVRQAPGKGLEWVSGISWNSGAIGYADSVKGRFTVSRDNSKNSLYLQMNSLRAEDTAVYYCARDYNYETSGYYHGFDNWGQGTLVTVSS VL: DIQMTQSPSSVSASVGDRVTITCRASQGISRWLSWYQQKPGKAPKLLIYAASNLQSGVPLRFSGSGSGTDFTLTINSLQPEDSATYYCQQTNNFPYTFGQGTKVEIKR", "value.reported": 1.69}

Now consider a different binder.
get_value(item= S3 antibody (antibody, human IgG1, kappa, V domains shown, Optimized from CSA123) VH: QMQLVQSGAEVKKPGASVKVSCKVSGYTLSELSIHWVRQAPGKGLEWMGGFDPEDDETVYAQKFQGRVTLTDDTSTDTAYMELSSLRSEDTAVYYCARDLGYLTSGNYYNAFGIWGRGTMITVSS VL: DIQMTQSPSSVSASVGDRVTITCRASQDINRWLAWYQQKPGKAPKLLIYAASRLQSGVPLRFSGSGSGTDFTLTINSLQPEDSATYYCQQTNNFPRTFGQGTRLEIKR , readout=Kd) returns 5.84
